Origin of measurements: patent US8993574B2

- System: Aspergillus terreus AT49
- run description: MIC, YAG medium
- Assay type: cell-based
- settings: Aspergillus terreus, 24 h at 35° C, MIC banded into grades, read-out: MIC grade, A. terreus 49
- Protocol: Between 1 and 5 mgs of compound were accurately weighed out into a sterile Eppendorf tube. The compound was dissolved in DMSO to give a solution containing 5 mg/mL. Tubes were stored at −20° C. until required. On the day of testing thawed solutions were vortex mixed to ensure homogeneity. […] This produced MIC plates with a drug range 50-0.05 mg/L and organism inocula of 1−2×10^4 cfu/mL for Aspergillus spp. […] Growth was assessed by monitoring the optical density at 485 nm for each well. […]
readout kind: MIC

// below: answered compounds
> print(dat)
                                smiles.text  readout.kind  measured.result
1  COCCn1c(C)cc(-c2ccccc2)c1C(=O)C(=O)Nc1ccc(N2CCOCC2)cc1F           MIC        < 1 µg/mL
2  Cc1cc(C)nc(N2CCN(c3ccc(NC(=O)C(=O)c4cccn4-c4ccccc4)cc3)CC2)c1           MIC        < 1 µg/mL
3  COCn1ccc(-c2ccccc2)c1C(=O)C(=O)Nc1ccc(N2CCN(c3cc(C)cc(C)n3)CC2)cc1           MIC        < 1 µg/mL
4  Cc1cc(C)nc(N2CCN(c3ccc(NC(=O)C(=O)c4c(-c5ccccc5)ccn4CC(N)=O)cc3)CC2)c1           MIC       > 10 µg/mL
5  CCCOCCn1c(C)cc(-c2ccccc2)c1C(=O)C(=O)Nc1ccc(N2CCN(c3cc(C)cc(C)n3)CC2)cc1           MIC    1 to 10 µg/mL
6  CNC(=O)Cn1ccc(-c2ccccc2)c1C(=O)C(=O)Nc1ccc(N2CCN(c3cc(C)cc(C)n3)CC2)cc1           MIC       > 10 µg/mL

// below: MIC requested for another compound
### Prompt Reported MIC for Cc1cc(-c2ccccc2)c(C(=O)C(=O)Nc2ccc(N3CCCC3)nc2)n1C : what is it?
### Response < 1 µg/mL

====

- Tested on: Aspergillus terreus AT49
- run description: MIC, YAG medium
- Format: cell-based
- settings: Aspergillus terreus, 24 h at 35° C, MIC banded into grades, read-out: MIC grade, A. terreus 49
readout kind: MIC

> print(dat)
                                   compound  measured.result
1  Cc1cc(-c2ccccc2)c(C(=O)C(=O)Nc2ccc(N3CCN(C(C)C(C)C)CC3)cc2)n1C (centres unmarked)        < 1 µg/mL
2  Cc1cc(C)nc(N2CCN(c3ccc(NC(=O)C(=O)c4c(-c5ccccc5)cc(C)n4Cc4cccnc4)cc3)CC2)c1    1 to 10 µg/mL
3  COCCn1c(C)cc(-c2ccccc2)c1C(=O)C(=O)Nc1ccc(N2CCN(c3cc(C)cc(C)n3)CC2)c(Cl)c1        < 1 µg/mL

Now take the following compound into account.
### Prompt Short answer please: MIC, Aspergillus terreus AT49, entry Cc1cc(C)nc(N2CCN(c3ccc(NC(=O)C(=O)c4c(-c5ccccc5)cc(C)n4C)cc3COCCCN3CCN(C)CC3)CC2)c1
### Response 1 to 10 µg/mL

====

- Tested on: Aspergillus flavus
- run description: MIC, RPMI medium
- Assay type: cell-based
- settings: Aspergillus flavus, MIC banded into grades, read-out: MIC grade, A. flavus
Parameter MIC: see the listing below.

Example entries and their recorded answers appear below.
> print(dat)
                                   compound       target.entity  readout.kind  measured.result
1  Cc1cc(-c2ccccc2)c(C(=O)C(=O)Nc2ccc(N3CCN(Cc4ccccc4)CC3)cc2)n1C [Example 144]  Aspergillus flavus           MIC        < 1 µg/mL
2  Cc1cc(-c2ccccc2)c(C(=O)C(=O)Nc2cccc3c(F)cccc23)n1C [Example 127]  Aspergillus flavus           MIC        < 1 µg/mL
3  Cc1cc(C)nc(N2CCN(c3ccc(NC(=O)C(=O)c4c(-c5ccccc5)cc(C)n4C)cc3COCCN(C)C)CC2)c1 [Example 17]  Aspergillus flavus           MIC       > 10 µg/mL

# input for lookup
### Prompt Which MIC value is on record for Cc1cc(-c2ccccc2)c(C(=O)C(=O)Nc2ccc(N3CCCCC3)cc2F)n1C [Example 106] ?
### Response < 1 µg/mL

====

- Tested on: Aspergillus terreus AT49
- run description: MIC, YAG medium
- Format: cell-based
- settings: Aspergillus terreus, 24 h at 35° C, MIC banded into grades, read-out: MIC grade, A. terreus 49
readout kind: MIC

> print(dat)
                                smiles.text             target.entity  readout.kind  measured.result
1  Cc1cc(C)nc(N2CCN(c3ccc(NC(=O)C(=O)c4c(-c5ccccc5)ccn4CCN(C)C)cc3)CC2)c1  Aspergillus terreus AT49           MIC       > 10 µg/mL
2  Cc1cc(C)nc(N2CCN(c3ccc(NC(=O)C(=O)c4c(-c5ccccc5)cc(C)n4CCOC(C)C)cc3)CC2)c1  Aspergillus terreus AT49           MIC    1 to 10 µg/mL
3  Cc1cc(-c2ccccc2)c(C(=O)C(=O)Nc2cccc3c(N4CCN(C)CC4)cccc23)n1C  Aspergillus terreus AT49           MIC        < 1 µg/mL
4  COCCn1c(C)cc(-c2ccccc2)c1C(=O)C(=O)Nc1ccc(N2CCN(CC(C)C)CC2)cc1F  Aspergillus terreus AT49           MIC    1 to 10 µg/mL
5  Cc1cc(-c2ccccc2)c(C(=O)C(=O)Nc2ccc(N3CCN(CC(C)C)CC3)cc2F)n1C  Aspergillus terreus AT49           MIC        < 1 µg/mL

### Prompt Fill in: MIC of Cc1cc(C)nc(N2CCN(c3ccc(NC(=O)C(=O)c4c(-c5ccccc5)cc(C)n4Cc4ccncc4)cc3)CC2)c1 is ___
### Response > 10 µg/mL

### Prompt Report MIC for CCn1c(C)cc(-c2ccccc2)c1C(=O)C(=O)Nc1ccc(N2CCN(c3cc(C)cc(C)n3)CC2)cc1 please.
### Response < 1 µg/mL

====

Quick list: MIC per entry.
- Test system: Aspergillus terreus AT49
- run description: MIC, YAG medium
- Assay type: cell-based
- settings: Aspergillus terreus, 24 h at 35° C, MIC banded into grades, read-out: MIC grade, A. terreus 49

A selection of reference data follows.
> print(dat)
                                smiles.text  measured.result
1  Cc1cc(-c2ccccc2)c(C(=O)C(=O)Nc2ccncc2)n1C    1 to 10 µg/mL
2  Cc1cc(-c2ccccc2)c(C(=O)C(=O)Nc2ccc(N3CCN(c4ccccn4)CC3)cc2)n1C        < 1 µg/mL
3  COCCn1ccc(-c2ccsc2)c1C(=O)C(=O)Nc1ccc(N2CCN(c3cc(C)cc(C)n3)CC2)cc1        < 1 µg/mL
4  Cc1cc(C)nc(N2CCN(c3ccc(NC(=O)C(=O)c4ccc(C)[nH]4)cc3)CC2)c1    1 to 10 µg/mL
5  COCCn1c(C)cc(C(C)C)c1C(=O)C(=O)Nc1ccc(N2CCN(c3cc(C)cc(C)n3)CC2)cc1    1 to 10 µg/mL
6  COCCn1ccc(-c2ccc(Cl)cc2)c1C(=O)C(=O)Nc1ccc(N2CCN(c3cc(C)cc(C)n3)CC2)cc1    1 to 10 µg/mL

### Prompt # get_value(readout='MIC', item= COCCn1c(C)cc(-c2ccccc2)c1C(=O)C(=O)Nc1ccc(N2CCN(c3cc(C)cc(C)n3)CC2)cc1F )
### Response < 1 µg/mL

====

- Tested on: Aspergillus flavus
- run description: MIC, RPMI medium
- Assay type: cell-based
- settings: Aspergillus flavus, MIC banded into grades, read-out: MIC grade, A. flavus
readout kind: MIC

Some solved cases for reference:
> print(dat)
                                   compound  readout.kind  measured.result
1  CSCn1c(C)cc(-c2ccccc2)c1C(=O)C(=O)Nc1ccc(N2CCN(c3cc(C)cc(C)n3)CC2)cc1           MIC    1 to 10 µg/mL
2  Cc1cc(C)nc(N2CCN(c3ccc(NC(=O)C(=O)c4c(-c5ccco5)cc(C)n4C)cc3)CC2)c1           MIC        < 1 µg/mL
3  Cc1cc(C)nc(N2CCN(c3ccc(NC(=O)C(=O)c4c(-c5ccccc5)c(F)c(C)n4C)cc3)CC2)c1           MIC        < 1 µg/mL
4  Cc1cc(-c2ccccc2)c(C(=O)C(=O)Nc2ccc(N3CCN(C(C)Cc4ccco4)CC3)cc2)n1C (stereo not shown)           MIC        < 1 µg/mL
5  Cc1cc(C)nc(N2CCN(c3ccc(NC(=O)C(=O)c4c(-c5ccccc5)cc5n4CCN(C)C5)cc3)CC2)c1           MIC    1 to 10 µg/mL

### Prompt State the recorded MIC for this entry: CCc1cc(-c2ccccc2)c(C(=O)C(=O)Nc2ccc(N3CCN(c4cc(C)cc(C)n4)CC3)cc2)n1CCOC
### Response > 10 µg/mL

### Prompt Quick one: MIC for COCCn1c(C)cc(-c2ccccc2)c1C(=O)C(=O)Nc1ccc(N2CCOCC2)c(F)c1 ?
### Response > 10 µg/mL
